Molecular target: Estrogen receptor (Homo sapiens)
Assay: OT_ERa_GFPERaERE_0480: Odyssey Thera (OT) 8-hour HeLa Transcription Induction Assay for Estrogen Receptor (AID 2283381)
Calls of active or inactive are those of the source. The calls were made as follows: active = hit-call score of the fitted dose curve at least 0.9, where 1 is the maximum; inactive = score below 0.9.

| molecule | AC50 |
| --- | --- |
| CS(=O)(=O)c1ccc(C(=O)C2C(=O)CCCC2=O)c([N+](=O)[O-])c1 | inactive |
| Cc1c(COC(=O)[C@@H]2[C@H](/C=C(\Cl)C(F)(F)F)C2(C)C)cccc1-c1ccccc1 | inactive |
| COc1cc(Cl)c(OC)cc1Cl | inactive |
| N#Cc1c[nH]cc1-c1cccc2c1OC(F)(F)O2 | inactive |
| Nc1c(Cl)c(Cl)nc(C(=O)O)c1Cl | inactive |
| Cn1c(-c2ccccc2)cc(-c2ccccc2)[n+]1C | inactive |
| Cc1ccc(N=CN(C)C=Nc2ccc(C)cc2C)c(C)c1 | inactive |
| CSC(=O)c1c(C(F)F)nc(C(F)(F)F)c(C(=O)SC)c1CC(C)C | inactive |
| CCOc1cc(C(C)(C)C)ccc1C1COC(c2c(F)cccc2F)=N1 (stereo not given) | inactive |
| CC(C)NC(=O)N1CC(=O)N(c2cc(Cl)cc(Cl)c2)C1=O | inactive |
| O=C1C2CC=CCC2C(=O)N1SC(Cl)(Cl)Cl (stereo not given) | inactive |
| COP(=O)(OC)O/C(C)=C/C(=O)N(C)C | inactive |
| Cc1nc(N(C)C)nc(OC(=O)N(C)C)c1C | inactive |
| CCCCOCN(C(=O)CCl)c1c(CC)cccc1CC | 71.3 µM (active) |
| CCCCC(C#N)(Cn1cncn1)c1ccc(Cl)cc1 (stereo not given) | inactive |
| CC(C)Nc1nc(Cl)nc(NC(C)C)n1 | inactive |
| CS(=O)(=O)c1cc(C(F)(F)F)ccc1C(=O)c1cnoc1C1CC1 | inactive |
| CCOP(=S)(OCC)Oc1nc(Cl)n(C(C)C)n1 | inactive |
| COc1cc(OC)nc(NC(=O)NS(=O)(=O)c2ncccc2OCC(F)(F)F)n1 | inactive |
| OC(c1ccc(Cl)cc1)(c1ccc(Cl)cc1)C(Cl)(Cl)Cl | inactive |
| CC1(C)CON(Cc2ccccc2Cl)C1=O | inactive |
| O=c1n(Cl)c(=O)n(Cl)c(=O)n1Cl | inactive |
| O=P(O)(O)CCCl | inactive |
| CC(C)C1(C)N=C(c2ncccc2C(=O)O)NC1=O (stereo not given) | inactive |
| COP(=S)(OC)SCn1nnc2ccccc2c1=O | inactive |

###

Target: Myc proto-oncogene protein (Homo sapiens)
Test: ATG_Myc_CIS: Attagene CIS-FACTORIAL HepG2 Assay for human Myelocytomatosis (Myc) Proto-Oncogene Transcription Factor (AID 2282990)
Settings: HepG2, Attagene cis-reporter transcription factor activity; actives raise or lower the signal
Description: ATG_CIS is a cell-based, multiplexed-readout assay that uses HepG2, a human liver cell line, with measurements taken at 24 hours after chemical dosing in a 24-well plate.ATG_Myc_CIS is one of 52 assay component(s) measured or calculated from the ATG_CIS assay. […] This assay endpoint, ATG_Myc_CIS, was analyzed with bidirectional fitting relative to DMSO as the negative control and baseline of activity. […]
The source made the active and inactive calls. Rule for the calls: active = hit-call score of the fitted dose curve at least 0.9, where 1 is the maximum; inactive = score below 0.9.

| compound | outcome |
| --- | --- |
| CCOP(=S)(OCC)Oc1nc(Cl)n(C(C)C)n1 | inactive |
| CCNC(=O)NC(=O)C(C#N)=NOC | inactive |
| CC(C)N1C(=O)N(c2ccccc2)CSC1=NC(C)(C)C | inactive |
| CCCN(CC)CC1COC2(CCC(C(C)(C)C)CC2)O1 (centres undefined) | inactive |
| COP(=O)(OC)O/C(C)=C/C(=O)N(C)C | inactive |
| CSC(=O)c1c(C(F)F)nc(C(F)(F)F)c(C(=O)SC)c1CC(C)C | inactive |
| COCc1cnc(C2=NC(C)(C(C)C)C(=O)N2)c(C(=O)O)c1 (centres undefined) | inactive |
| Nc1cnn(-c2ccccc2)c(=O)c1Cl | inactive |
| Clc1nc(Cl)nc(Nc2ccccc2Cl)n1 | inactive |
| CCCCC(C#N)(Cn1cncn1)c1ccc(Cl)cc1 (centres undefined) | inactive |
| CC(C)=CC1C(C(=O)OCc2coc(Cc3ccccc3)c2)C1(C)C (centres undefined) | inactive |
| CCCCC(O)(Cn1cncn1)c1ccc(Cl)cc1Cl (centres undefined) | inactive |
| CC1(C)C(C(=O)OC(C#N)c2cccc(Oc3ccccc3)c2)C1(C)C (centres undefined) | inactive |
| CN=C=S | inactive |
| O=c1n(Cl)c(=O)n(Cl)c(=O)n1Cl | inactive |
| Cc1nc(N(C)C)nc(OC(=O)N(C)C)c1C | inactive |
| CC(C)NC(=O)N1CC(=O)N(c2cc(Cl)cc(Cl)c2)C1=O | inactive |
| CS(=O)(=O)c1ccc(C(=O)C2C(=O)CCCC2=O)c([N+](=O)[O-])c1 | inactive |
| COCC(C)N(C(=O)CCl)c1c(C)csc1C (centres undefined) | inactive |

###

Read-out: Interleukin-8 (IL8), CXCL8 (gene 3576)
Experiment: BSK_LPS_IL8: BioMAP Diversity Plus: LPS Assay for Interleukin-8 (IL8) Biomarker Activity (AID 2283078)
Details: primary human HUVEC with PBMC; actives raise or lower the signal
Calls of active or inactive are those of the source. How the source made its calls: active means hit-call score of the fitted dose curve at least 0.9, where 1 is the maximum; inactive means score below 0.9.
Labels: active, inactive

| compound | category_label |
| --- | --- |
| CCC(C)n1c(=O)[nH]c(C)c(Br)c1=O (configuration not stated) | inactive |
| Nc1c(Cl)c(F)nc(OCC(=O)O)c1Cl | inactive |
| Clc1nc(Cl)nc(Nc2ccccc2Cl)n1 | inactive |
| Cc1cc(C)nc(Nc2ccccc2)n1 | active |
| COCC(=O)N(c1c(C)cccc1C)C(C)C(=O)OC (configuration not stated) | inactive |
| CC1(C)CCC(=Cc2ccc(Cl)cc2)C1(O)Cn1cncn1 (configuration not stated) | inactive |
| CC(C)Oc1cccc(NC(=O)c2ccccc2C(F)(F)F)c1 | inactive |
| CC1(C)C(C(=O)OC(C#N)c2cccc(Oc3ccccc3)c2)C1(C)C (configuration not stated) | inactive |
| CCSC(=O)N1CCCCCC1 | inactive |
| CCOC(=O)C(C)OC(=O)c1cc(Oc2ccc(C(F)(F)F)cc2Cl)ccc1[N+](=O)[O-] (configuration not stated) | inactive |
| COC(=O)N(C(=O)N1CO[C@@]2(C(=O)OC)Cc3cc(Cl)ccc3C2=N1)c1ccc(OC(F)(F)F)cc1 | active |
| O=C1C2CC=CCC2C(=O)N1SC(Cl)(Cl)Cl (configuration not stated) | active |
| CCCCC(O)(Cn1cncn1)c1ccc(Cl)cc1Cl (configuration not stated) | inactive |
| CCOc1nc(C(Cl)(Cl)Cl)ns1 | inactive |
| CC(C)N1C(=O)N(c2ccccc2)CSC1=NC(C)(C)C | active |
| N#Cc1c[nH]cc1-c1cccc2c1OC(F)(F)O2 | inactive |
| CS(=O)(=O)c1ccc(C(=O)C2C(=O)CCCC2=O)c([N+](=O)[O-])c1 | inactive |
| O=C(O)c1c(Cl)ccc2cc(Cl)cnc12 | inactive |
| CCNP(=S)(OC)O/C(C)=C/C(=O)OC(C)C (configuration not stated) | inactive |
| CS(=O)(=O)c1cc(C(F)(F)F)ccc1C(=O)c1cnoc1C1CC1 | inactive |
| COP(=O)(OC)O/C(C)=C/C(=O)N(C)C | inactive |
| O=c1n(Cl)c(=O)n(Cl)c(=O)n1Cl | inactive |
| COCc1cnc(C2=NC(C)(C(C)C)C(=O)N2)c(C(=O)O)c1 (configuration not stated) | inactive |
| Cc1cnc(C2=NC(C)(C(C)C)C(=O)N2)c(C(=O)O)c1 (configuration not stated) | inactive |
| CCNC(=O)NC(=O)C(C#N)=NOC | inactive |
| CO/N=C(/C1=NOCCO1)c1ccccc1Oc1ncnc(Oc2ccccc2Cl)c1F | active |
| CCOP(=O)(OCC)Oc1nc(Cl)c(Cl)cc1Cl | inactive |
| CC(C)Nc1nc(Cl)nc(NC(C)C)n1 | inactive |
| CCOc1nc(F)cc2nc(S(=O)(=O)Nc3c(Cl)cccc3Cl)nn12 | inactive |
| CC1(C)C(C=C(Cl)Cl)C1C(=O)OC(C#N)c1cccc(Oc2ccccc2)c1 (configuration not stated) | inactive |
| N#Cc1c(Cl)cccc1Cl | inactive |
| Nc1cnn(-c2ccccc2)c(=O)c1Cl | inactive |
| CCCC(=NOCC)C1=C(O)CC(CC(C)SCC)CC1=O (configuration not stated) | inactive |
| Nc1c(Cl)c(Cl)nc(C(=O)O)c1Cl | inactive |
| Cc1ccc(N=CN(C)C=Nc2ccc(C)cc2C)c(C)c1 | active |
| Clc1cccc(C(Cl)(Cl)Cl)n1 | inactive |
| CN=C=S | inactive |
